# measured on: HLA-B*07:02
# test method notes: IEDB peptide-MHC binding, purified MHC/competitive/radioactivity; bounds were set here for any values at or beyond the usual limits of such assays
# condition info: source organism: Bordetella pertussis
pIC50: −log10 of the molar value.
property: pIC50

Which value of pIC50 has been reported for `LPPRPVVAE` in the records? ≤ 4.11

---

# measured on: HLA-B*44:03
# test method notes: IEDB peptide-MHC binding, purified MHC/competitive/radioactivity; bounds were set here for any values at or beyond the usual limits of such assays
# condition info: source organism: Bordetella pertussis
// reported IC50 per item
The answer should read as a number with its unit following.

Which value of IC50 has been reported for `GEIALGDAT` in the records? 15.6 µM

Try this sequence next: `PLPPRPVVA` 55.9 µM

Try this sequence next: `KEVDGIIQE` 39.1 µM

Here's the next entry for you.
Which value of IC50 has been reported for `YEVTPTRML` in the records? 19 µM

---

# measured on: HLA-B*53:01
# test method notes: IEDB peptide-MHC binding, purified MHC/competitive/radioactivity; bounds were set here for any values at or beyond the usual limits of such assays
# condition info: source organism: Bordetella pertussis
// reported pIC50 per item
To interpret pIC50, take it as minus log10 of a concentration measured in moles per litre.

Given the entry `TPLPVSLTA` , what pIC50 was observed with HLA-B*53:01? 4.93

Continuing:
Given the entry `HADWNNQSI` , what pIC50 was observed with HLA-B*53:01? 4.91

Reference source: the Immune Epitope Database (IEDB)
